target: T1, TBD-17 (HC S104A); experiment: competition ELISA, peptide vs Fab binding to captured biotin-TROP2
T1 construct: Fab; also called HC S104A mutant
T1 sequence (VH, as listed by the source, chain 1 of 2): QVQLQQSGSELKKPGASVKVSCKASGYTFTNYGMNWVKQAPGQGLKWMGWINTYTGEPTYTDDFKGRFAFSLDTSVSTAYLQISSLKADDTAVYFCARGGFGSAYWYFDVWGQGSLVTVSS
T1 sequence (VL, as listed by the source, chain 2 of 2): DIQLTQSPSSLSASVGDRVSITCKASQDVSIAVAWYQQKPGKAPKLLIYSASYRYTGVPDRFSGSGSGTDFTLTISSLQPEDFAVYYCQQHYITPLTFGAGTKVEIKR
Where no end group is shown, it is not given here.
outcome measure: IC50 (nM)
Give your result in nM as a bare value.

# count of solved cases: 4
Per the records, this binder ( IDFCAVYKWPVCQV (cysteine pairing not given here; also: biotinylated, site not given here) [Peptide-62] ) has IC50 equal to 1420

Per the records, this binder ( VDFCYLYNWPVCSK (cysteine pairing not given here; also: biotinylated, site not given here) [Peptide-37] ) has IC50 equal to 4080

Per the records, this binder ( VDFCYQYGWPICSR (cysteine pairing not given here; also: biotinylated, site not given here) [Peptide-36] ) has IC50 equal to 14800

Per the records, this binder ( IDFCAMYHWPICDT (cysteine pairing not given here; also: biotinylated, site not given here) [Peptide-42] ) has IC50 equal to 590

With those in mind, consider the next binder.
Per the records, this binder ( VDFCALYHWPICYQ (cysteine pairing not given here; also: biotinylated, site not given here) [Peptide-43] ) has IC50 equal to 560
